assay-name: Octanol-water partition coefficient, log P of the compound
Type: physicochemical
Please provide measured logP for the entries that follow.
Could you keep your reply to the number by itself?

Input `CC(=O)O[C@H]1C(=O)[C@@]2(C)[C@H]([C@H](OC(=O)c3ccccc3)[C@]3(O)C[C@H](OC(=O)[C@H](O)[C@@H](NC(=O)c4ccccc4)c4ccccc4)C(C)=C1C3(C)C)[C@]1(OC(C)=O)CO[C@@H]1C[C@@H]2O` . Output logP: 2.25

Input `CC(=O)O[C@H]1C(=O)[C@@]2(C)[C@H]([C@H](OC(=O)c3ccccc3)[C@]3(O)C[C@H](OC(=O)[C@H](OC(=O)CCC(=O)OC(COC(CO)CO)COC(CO)CO)[C@@H](NC(=O)c4ccccc4)c4ccccc4)C(C)=C1C3(C)C)[C@]1(OC(C)=O)CO[C@@H]1C[C@@H]2O` . Output logP: 2.26

Input `CC(=O)O[C@H]1C(=O)[C@]2(C)[C@@H](OC(=O)CCC(=O)OC(COC(CO)CO)COC(CO)CO)C[C@H]3OC[C@@]3(OC(C)=O)[C@H]2[C@H](OC(=O)c2ccccc2)[C@]2(O)C[C@H](OC(=O)[C@H](O)[C@@H](NC(=O)c3ccccc3)c3ccccc3)C(C)=C1C2(C)C` . Output logP: 1.99

Input `CC(=O)O[C@H]1C(=O)[C@@]2(C)[C@H]([C@H](OC(=O)c3ccccc3)[C@]3(O)C[C@H](OC(=O)[C@H](O)[C@@H](NC(=O)CCC(=O)OC(COC(CO)CO)COC(CO)CO)c4ccccc4)C(C)=C1C3(C)C)[C@]1(OC(C)=O)CO[C@@H]1C[C@@H]2O` . Output logP: 1.46
